Tested on: KM12 colon
Experiment: NCI tumour cell line growth inhibition, 48 h
value-kind: TGI

# molecule, target-desc, value-kind, reported-measurement
rows = [
    ("CN(CCO)c1nc2c(c(=O)[nH]1)CCC2", "KM12 colon", "TGI", "> 100 µM"),
]

Qu. Given the molecule Cc1cc(NCc2cc(Nc3ccnc4cc(Cl)ccc34)ccc2F)nc(N2CCCC2)n1 , write its reported TGI.
Ans. 4.53 µM

Qu. Given the molecule COc1ccc(C(OCC2OC(n3ccc(NC(=O)c4ccccc4)nc3=O)C(O)C2O)(c2ccccc2)c2ccccc2)cc1 (stereo not given) , write its reported TGI.
Ans. 38.5 µM

Qu. Given the molecule COc1ccc(OC)c(NC(=O)CCC/C(CC(=O)c2ccc(O)c(OC)c2)=N\NC(=O)C[N+](C)(C)C)c1 , write its reported TGI.
Ans. > 100 µM

Qu. Given the molecule CNC(=O)OCc1c(COC(=O)NC)c(C)n(-c2ccc(Br)cc2)c1C , write its reported TGI.
Ans. 30.8 µM

Qu. Given the molecule N=C(N)c1ccc(N2CCCN(c3ccc(C(=N)N)cc3)CC2)cc1 , write its reported TGI.
Ans. > 100 µM

Qu. Given the molecule CN(C)CCCNC(=O)N/N=C/c1cccc([N+](=O)[O-])c1 , write its reported TGI.
Ans. > 100 µM

Qu. Given the molecule CCCn1c(C)nc2c1C(=O)c1ccccc1C2=O , write its reported TGI.
Ans. > 100 µM

Qu. Given the molecule c1ccc(SC(CCCCC(Sc2ccccc2)Sc2ccccc2)Sc2ccccc2)cc1 , write its reported TGI.
Ans. > 100 µM

Qu. Given the molecule O=C(NNC1=NCCN1)c1ccco1 , write its reported TGI.
Ans. > 100 µM

----------
Below: a set of entries, each annotated with reported TGI.
Test system: SF-268 CNS
Assay: NCI tumour cell line growth inhibition, 48 h

# compound, TGI
measured = [
    ("COc1c2c(cc3oc(C)cc(=O)c13)OC(=N)C(C(N)=O)C2CC(=O)c1ccc(N)cc1 (stereo not given)", "> 100 µM"),
    ("O=[N+]([O-])c1cccc(-c2nc3sccn3c2-c2ccnc(NCCCNS(=O)(=O)c3cccc(F)c3)n2)c1", "21.9 µM"),
    ("N#C/C(=C\\c1c(-c2ccccc2)[nH]c2ccccc12)S(=O)(=O)c1ccccc1", "20.5 µM"),
    ("C=C1COC(/C=C(\\C)CC/C=C(\\C)CCl)C1 (stereo not given)", "> 100 µM"),
    ("Cc1ccc(NC(=O)/C=C/c2ccccc2)c(C(N)=O)c1", "> 100 µM"),
]

Qu. Fill in: TGI on SF-268 CNS, entry C[Si](C)(C)OC1(C#N)C2C3CC4C2C(=O)C2C4C3C21 (stereo not given)
Ans. > 100 µM

Qu. Fill in: TGI on SF-268 CNS, entry CN(CCO)c1nc2c(c(=O)[nH]1)CCC2
Ans. > 100 µM

Qu. Fill in: TGI on SF-268 CNS, entry O=c1cc(-c2ccccc2)[nH]c2cc(O)ccc12
Ans. > 100 µM

Qu. Fill in: TGI on SF-268 CNS, entry COc1ccc(-c2c(N)n(-c3nc4ccccc4s3)c(=O)c3cc([N+](=O)[O-])ccc23)cc1
Ans. 56.6 µM

Qu. Fill in: TGI on SF-268 CNS, entry COC(=O)C1C(OC(=O)c2ccccc2)CC2CCC1N2C(N)=O (stereo not given)
Ans. > 100 µM

Cited source for all entries: PubChem BioAssay (NCI)
